Test system: A498 renal
METHOD NOTES: NCI tumour cell line growth inhibition, 48 h
ASSAY READOUT: log10 TGI (log10 of the value in µM)

| COMPOUND | TESTED SYSTEM | VALUE |
| --- | --- | --- |
| Clc1ccc2oc(CCc3ccccc3)nc2c1 | A498 renal | 1.78 |
| C[C@@H]1Cc2cc(O)ccc2[C@H]2CC[C@]3(C)/C(=C/COCCN(C)C)CC[C@H]3[C@H]12 (tested in a mixture with another compound) | A498 renal | 0.20 |
| COc1ccc(/C=C(\C)[N+](=O)[O-])cc1OC | A498 renal | 1.27 |
| OC(c1cccnc1Cl)c1nc2ccccc2c2ccnc(Cl)c12 (stereo unspecified) | A498 renal | 1.24 |
| CC[C@@]1(O)C(=O)OCc2c1cc1n(c2=O)Cc2c-1nc1ccccc1c2/C=N\NC(=O)C(N)CCSC (stereo partly specified) | A498 renal | -0.44 |
| Nc1n[nH]c2ccc([C@@H]3Nc4cc5c(cc4[C@H]4C6CCC(C6)[C@@H]34)C(=O)NC5)cc12 (stereo partly specified) | A498 renal | -0.13 |
| COc1cccc(Oc2ccccc2NC(=O)CNC(=O)c2cccc3ccccc23)c1 | A498 renal | 0.32 |
| CCOC(=O)/C(I)=C/c1cc(OC)c(OC)c(OC)c1 | A498 renal | 1.96 |
| CN1CCc2nc3sc(C(N)=O)c(N)c3c(-c3cccs3)c2C1 | A498 renal | 0.86 |
| CCN1C(=O)N(CC)C2C1NN=c1s/c(=C\c3ccc(F)cc3)c(=O)n12 (stereo unspecified) | A498 renal | -0.48 |
| O=C(Nc1ccccc1OC(=O)c1ccccc1)c1ccccc1 | A498 renal | 1.78 |
| O=C1c2c(Br)sc(Br)c2[C@@H](NC(=O)C(F)(F)F)C1Br (stereo partly specified) | A498 renal | 1.46 |
| COc1cc(/C=C/c2ccc3c(Br)cc(Br)c(O)c3n2)ccc1O | A498 renal | 1.34 |
| O=[N+]([O-])c1ccc(C(O)(C#CCN2CCCC2)c2ccccc2)cc1 (stereo unspecified) | A498 renal | 1.88 |
| CSc1ccc(C2=NN(C(C)=O)C(c3ccc(-c4ccc(Cl)cc4)o3)C2)cc1 (stereo unspecified) | A498 renal | 1.68 |
| COc1cccc(C(=O)C#Cc2cnc(OC)nc2OC)c1 | A498 renal | 1.34 |
| COc1ccc2c(-c3ccnc(Nc4cccc(OC(F)(F)F)c4)n3)cnn2n1 | A498 renal | 1.03 |
| c1ccc(N=C2c3ccsc3C(=Nc3ccccc3)c3ccsc32)cc1 | A498 renal | 1.17 |
| Cc1cc2c(cc1C)[n+](=O)c(C(=O)c1ccccc1)c(C(F)(F)F)n2[O-] | A498 renal | 1.13 |
| COc1cc2c(cc1F)C(c1ccccc1Cl)=Nc1c(n[nH]c1C)N2 | A498 renal | 1.00 |
| Cc1ccc(C2C3Cc4ccccc4C3=NN2c2ccc(S(=O)(=O)/N=c3\scc(-c4ccccc4)n3-c3ccccc3)cc2)cc1 (stereo unspecified) | A498 renal | 1.56 |
| CC1c2ccccc2CCN1c1ccc(CO)c(Cl)c1 (stereo unspecified) | A498 renal | -1.05 |
